B1: SNAP91 (parent)
chain: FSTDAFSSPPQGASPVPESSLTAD

Variants of: B1
Protocol Notes: protein stability index of a GFP-peptide fusion (GPS, HEK-293T) (PSI 1-6); higher = more stable;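 further: lentivirally expressed fusions sorted by FACS into six bins by GFP to DsRed ratio, PSI derived from sequencing read proportions per bin multiplied by bin number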
Condition: c terminus: a fixed tail appended
Decide by protein stability index: equal to or exceeding 3 means Met, less means Not met.

Would you please look over these solved cases?
• S20F = Not met
• T3K = Met
• E18Y = Not met

Exam item: Check if protein stability index >= 3 (inclusive). Item: `S14F`
Marked response: Not met

Exam item: Check if protein stability index >= 3 (inclusive). Item: `S19N`
Marked response: Met

Exam item: Check if protein stability index >= 3 (inclusive). Item: `S14E`
Marked response: Met

Exam item: Check if protein stability index >= 3 (inclusive). Item: `E18C`
Marked response: Not met

Exam item: Check if protein stability index >= 3 (inclusive). Item: `P9G`
Marked response: Not met

Exam item: Check if protein stability index >= 3 (inclusive). Item: `A5H`
Marked response: Met

Exam item: Check if protein stability index >= 3 (inclusive). Item: `G12A`
Marked response: Met

Exam item: Check if protein stability index >= 3 (inclusive). Item: `G12H`
Marked response: Not met

Exam item: Check if protein stability index >= 3 (inclusive). Item: `Q11Y`
Marked response: Not met

Exam item: Check if protein stability index >= 3 (inclusive). Item: `Q11N`
Marked response: Met
